Sequence of the target: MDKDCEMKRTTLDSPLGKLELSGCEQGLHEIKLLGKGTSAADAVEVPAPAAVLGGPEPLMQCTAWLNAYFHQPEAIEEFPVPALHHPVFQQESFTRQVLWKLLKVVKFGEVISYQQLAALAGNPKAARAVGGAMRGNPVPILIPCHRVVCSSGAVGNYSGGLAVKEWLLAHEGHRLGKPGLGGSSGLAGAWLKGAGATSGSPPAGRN
PARAMETER_MEASURED: ED50

I would be grateful if you could share the reported ED50 for "Nc1nc(NCc2ccccc2CO)c2[nH]cnc2n1" .
> 1000 µM

I would be grateful if you could share the reported ED50 for "NCc1ccccc1COc1nc(N)nc2nc[nH]c12" .
45 µM

I would be grateful if you could share the reported ED50 for "NCc1ccc(COc2nc(N)nc3nc[nH]c23)cc1" .
0.053 µM

I would be grateful if you could share the reported ED50 for "Cc1cccc(COc2nc(N)nc3nc[nH]c23)c1" .
0.16 µM

I would be grateful if you could share the reported ED50 for "Cc1ccccc1COc1nc(N)nc2nc[nH]c12" .
90 µM
